Please go through the items and note down their growth.
# Test system: TK-10 renal
# Assay Notes: NCI-60 one-dose screen, 48 h (100 = growth as untreated, 0 = no growth, -100 = all killed)
# Condition Details: 10 µM unless noted
The panel holds about 83,000 compounds, 20% with a hit somewhere; the sample as a whole holds those more often.
Could you give me the number in %? Just the number is fine.

Query :: Recorded growth for CCOP(=O)(OCC)OC[C@]12CCC(C)(C)C[C@H]1C1=CC[C@@H]3[C@@]4(C)C/C(=C\c5cccnc5)[C@H](OP(=O)(OCC)OCC)C(C)(C)[C@@H]4CC[C@@]3(C)[C@]1(C)CC2 , please?
Result :: 37.3

Query :: // repeat for Cc1cn(-c2cc(NC(=O)c3cncc(C#Cc4cnc5ccc(O[C@@H]6CCOC6)nn45)c3)cc(C(F)(F)F)c2)cn1 and report
Result :: -19.2

Query :: // repeat for Oc1ccc(CSc2nnc(-c3ccc(Br)cc3)n2-c2ccccc2)c2cccnc12 and report
Result :: 36.5

Query :: // repeat for C/C(=N/Nc1nc(N/N=C(/C)c2ccc([N+](=O)[O-])cc2)nc(N2CCOCC2)n1)c1ccc([N+](=O)[O-])cc1 and report
Result :: 127

Query :: // repeat for Cc1cn(-c2cc(NC(=O)c3cncc(C#Cc4cnc5ccc(OCCCS(C)(=O)=O)nn45)c3)cc(C(F)(F)F)c2)cn1 and report
Result :: 33.8

Query :: // repeat for O=C(c1cccc(F)c1)n1ccc2cc(NC(=S)Nc3cccnc3)ccc21 and report
Result :: 94.8

Query :: // repeat for c1ccc(-c2c(-c3ccccc3)[n+](Cc3ccc4ccccc4c3)c(-c3ccccc3)n2Cc2ccc3ccccc3c2)cc1 and report
Result :: -81.1

Query :: // repeat for O=C(NCCCNc1cc(-c2cn(-c3ccccc3)nc2-c2cccc(O)c2)ccn1)Nc1ccc(F)cc1 and report
Result :: 65

Query :: // repeat for COc1cc(-c2noc(C[C@@H](NC(=O)OCc3ccccc3)C(C)C)n2)cc(OC)c1OC and report
Result :: 96.1

Query :: // repeat for Cc1nn(-c2ccccc2)c2nc(CCl)[nH]c(=O)c12 and report
Result :: 63.3

Query :: // repeat for COc1ccc(OC)c(NC2=C(Cl)C(=O)C(C)=C(C)C2=O)c1 and report
Result :: 172

Query :: // repeat for C=CCn1c(SCC(=O)Nc2cccc(C(=O)/C=C/c3cc(OC)c(OC)c(OC)c3)c2)nc2ccccc2c1=O and report
Result :: 112

Query :: // repeat for COCCC[C@H]1O[C@@](O)([C@H](C)[C@@H]2CC(OC)C(O)/C=C(C)/C=C(C)/C=C(\C)C(OC3O[C@@H](C)[C@H](O)C(O)[C@@H]3O)C(C)/C=C(C)/C=C(OC)/C=C(\C)C(=O)O2)C(OC)C(O)[C@]1(C)O[C@H]1C[C@@H](O)[C@H](O[C@H]2C[C@](C)(O)[C@H](O)C(C)O2)C(C)O1 (stereo not given in full) and report
Result :: 49.9

Query :: // repeat for O=C(Nc1cc(Cl)cc(Cl)c1)Nc1ccc2oc(=O)ccc2c1 and report
Result :: 18.6

Query :: // repeat for O=C(NCCCNc1cc(-c2cn(-c3ccccc3)nc2-c2cccc(O)c2)ccn1)Nc1cc(C(F)(F)F)cc(C(F)(F)F)c1 and report
Result :: 93.4
